measurement-target: mouse P2Y10 (Mus musculus, UniProt Q8BFU7)
Construct: expressed in transfected cells; host or cells: HEK293 cells, transient transfection with pCAGGS vector (LipofectAMINE 2000)
Sequence (Q8BFU7 whole entry): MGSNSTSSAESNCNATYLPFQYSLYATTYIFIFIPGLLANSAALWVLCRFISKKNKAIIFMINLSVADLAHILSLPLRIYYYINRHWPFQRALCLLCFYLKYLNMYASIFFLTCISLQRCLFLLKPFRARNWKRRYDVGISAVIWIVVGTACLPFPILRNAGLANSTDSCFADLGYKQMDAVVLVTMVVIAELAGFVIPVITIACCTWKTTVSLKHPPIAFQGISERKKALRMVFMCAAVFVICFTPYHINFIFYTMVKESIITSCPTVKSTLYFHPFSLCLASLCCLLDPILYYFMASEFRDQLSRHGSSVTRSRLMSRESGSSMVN
method-summary: TGFα cleavage assay, agonistic activity against P2Y10
Format: cell-based
protocol-conditions: HEK293 cells transfected with AP labeled TGFα and mouse P2Y10; graded against EC50 of Reference Compound 1
readout-label: P2Y10/LPS2 agonistic activity

INSERT INTO assay_data (molecule, measured_value) VALUES
  ('CCCCCCCCCCCOc1ccccc1CCC(=O)Oc1cccc(COP(=O)(O)OC[C@H](N)C(=O)O)c1 [Example 9]', '+++'),
  ('CCCCCCCCCCCOc1ccccc1CCC(=O)OCc1cccc(OP(=O)(O)OC[C@H](N)C(=O)O)c1 [Example 6]', '++++'),
  ('CCCCCCCCCCCOc1ccccc1CCC(=O)Oc1ccc(OP(=O)(O)OC[C@H](N)C(=O)O)cc1 [Example 3]', '+++~++++'),
  ('CCCCCCCC/C=C\CCCCCCCC(=O)OC[C@@H](O)COP(=O)(O)OC[C@H](N)C(=O)O [compound 1, reference compound]', '+++'),
  ('CCCCCCCCCCCOc1ccccc1CCC(=O)OCc1ccccc1OP(=O)(O)OC[C@H](N)C(=O)O [Example 4]', '++'),
  ('CCCCCCCCCCCOc1ccccc1CCC(=O)Oc1cccc(OP(=O)(O)OC[C@H](N)C(=O)O)c1 [Example 2]', '+++~++++'),
  ('N[C@@H](COP(=O)(O)OCc1cccc(OC(=O)CCc2ccccc2OCc2cccc(Oc3ccccc3)c2)c1)C(=O)O [Example 10]', '++');

----------
melting point values, listed per item
Where a name gives a salt, the structure may show the parent alone.
readout-label: melting point

INSERT INTO results (molecule, measured_value) VALUES
  ('CCCCCCCCCCCOc1ccccc1CCC(=O)Oc1ccc(OP(=O)(O)OC[C@H](N)C(=O)O)cc1 (as salt: salt) [Example 3]', '140.5 to 142 °C'),
  ('Cc1cccc(C)c1-c1cccc(COc2ccccc2CCC(=O)O)c1 [Example 36]', '117.5 to 120 °C'),
  ('CCCCCCCCCCCOc1ccccc1CCC(=O)OCc1ccc(OP(=O)(O)OC[C@H](N)C(=O)O)cc1 (as salt: TFA)', '184 to 193 °C'),
  ('O=C(O)CCc1cccc(OCc2cccc(-c3ccccc3)c2)c1 [Example 48]', '90 to 91 °C'),
  ('N[C@@H](COP(=O)(O)Oc1cccc(COC(=O)CCc2ccccc2OCc2cccc(Oc3ccccc3)c2)c1)C(=O)O (as salt: TFA) [Example 7]', '175 to 185 °C'),
  ('CCCCCCCCCCCOc1ccccc1CCC(=O)Oc1cccc(OP(=O)(O)OC[C@H](N)C(=O)O)c1 (as salt: salt) [Example 2]', '123 to 126.5 °C'),
  ('Cc1ccc(Oc2cccc(COc3ccccc3CCC(=O)O)c2)cc1 [Example 33]', '104.5 to 106 °C'),
  ('CC(C)(C)c1ccc(Oc2cccc(COc3ccccc3CCC(=O)O)c2)cc1 [Example 42]', '111.1 to 112.5 °C'),
  ('O=C(O)CCc1ccccc1OCc1cccc(-c2ccccc2)c1 [Example 47]', '87.8 to 88.8 °C');

----------
measurement-target: mouse P2Y10 (Mus musculus)
method-summary: TGFα cleavage assay, agonistic activity against P2Y10
protocol-conditions: HEK293 cells, mouse P2Y10, AP-TGFα release, value in parentheses; read-out: P2Y10/LPS2 EC50
pEC50: −log10 of the molar value.
readout-label: pEC50

INSERT INTO results (compound, measured_value) VALUES
  ('CCCCCCCCCCCOc1ccccc1CCC(=O)Oc1ccc(OP(=O)(O)OC[C@H](N)C(=O)O)cc1 [Example 3]', 8.15),
  ('N[C@@H](COP(=O)(O)Oc1cccc(COC(=O)CCc2ccccc2OCc2cccc(Oc3ccccc3)c2)c1)C(=O)O [Example 7]', 7.51),
  ('CCCCCCCC/C=C\CCCCCCCC(=O)OC[C@@H](O)COP(=O)(O)OC[C@H](N)C(=O)O [compound 1, reference compound]', 8.08),
  ('CCCCCCCCCCCOc1ccccc1CCC(=O)Oc1cccc(OP(=O)(O)OC[C@H](N)C(=O)O)c1 [Example 2]', 7.85),
  ('CCCCCCCCCCCOc1ccccc1CCC(=O)OCC#CCOP(=O)(O)OC[C@H](N)C(=O)O [Example 12]', 8.82),
  ('CCCCCCCCCCCOc1ccccc1CCC(=O)Oc1cccc(COP(=O)(O)OC[C@H](N)C(=O)O)c1 [Example 9]', 7.52),
  ('CCCCCCCCCCCOc1ccccc1CCC(=O)OCc1cccc(OP(=O)(O)OC[C@H](N)C(=O)O)c1 [Example 6]', 8.48);

----------
measurement-target: mouse GPR174 (Mus musculus)
Construct: expressed in transfected cells; host or cells: HEK293 cells, transient transfection with pCAGGS vector (LipofectAMINE 2000)
Sequence (Q3U507 whole entry): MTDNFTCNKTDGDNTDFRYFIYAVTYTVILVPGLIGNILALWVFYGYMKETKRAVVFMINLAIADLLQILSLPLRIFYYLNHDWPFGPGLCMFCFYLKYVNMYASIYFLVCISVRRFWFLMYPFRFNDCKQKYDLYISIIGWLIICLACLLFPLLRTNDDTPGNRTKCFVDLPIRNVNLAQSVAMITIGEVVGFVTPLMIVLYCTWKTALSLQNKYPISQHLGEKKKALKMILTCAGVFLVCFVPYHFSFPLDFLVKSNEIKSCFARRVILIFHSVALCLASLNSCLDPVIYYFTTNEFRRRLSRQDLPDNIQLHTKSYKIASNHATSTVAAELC
method-summary: TGFα cleavage assay, agonistic activity against GPR174
Assay type: cell-based
protocol-conditions: HEK293 cells transfected with AP labeled TGFα and mouse GPR174; graded against EC50 of Reference Compound 1
readout-label: GPR174/LPS3 agonistic activity

INSERT INTO results (compound, measurement_target, measured_value) VALUES
  ('N[C@@H](COP(=O)(O)OCc1cccc(OC(=O)CCc2ccccc2OCc2cccc(Oc3ccccc3)c2)c1)C(=O)O', 'mouse GPR174 (Mus musculus)', '+~++'),
  ('CCCCCCCCCCCOc1ccccc1CCC(=O)Oc1cccc(OP(=O)(O)OC[C@H](N)C(=O)O)c1', 'mouse GPR174 (Mus musculus)', '−'),
  ('CCCCCCCCCCCOc1ccccc1CCC(=O)OCc1ccccc1OP(=O)(O)OC[C@H](N)C(=O)O', 'mouse GPR174 (Mus musculus)', '+'),
  ('CCCCCCCCCCCOc1ccccc1CCC(=O)OCc1cccc(OP(=O)(O)OC[C@H](N)C(=O)O)c1', 'mouse GPR174 (Mus musculus)', '+~++'),
  ('CCCCCCCCCCCOc1ccccc1CCC(=O)Oc1cccc(COP(=O)(O)OC[C@H](N)C(=O)O)c1', 'mouse GPR174 (Mus musculus)', '−'),
  ('CCCCCCCCCCCOc1ccccc1CCC(=O)OCC#CCOP(=O)(O)OC[C@H](N)C(=O)O', 'mouse GPR174 (Mus musculus)', '+'),
  ('N[C@@H](COP(=O)(O)Oc1cccc(COC(=O)CCc2ccccc2OCc2cccc(Oc3ccccc3)c2)c1)C(=O)O', 'mouse GPR174 (Mus musculus)', '−~+'),
  ('CCCCCCCC/C=C\CCCCCCCC(=O)OC[C@@H](O)COP(=O)(O)OC[C@H](N)C(=O)O [compound 1, reference compound]', 'mouse GPR174 (Mus musculus)', '+++'),
  ('CCCCCCCCCCCOc1ccccc1CCC(=O)Oc1ccc(OP(=O)(O)OC[C@H](N)C(=O)O)cc1', 'mouse GPR174 (Mus musculus)', '+~++');
